Entries and their percent inhibition of Factor 7
test system: human Factor 7 mRNA; assay: Dose-dependent antisense inhibition of human Factor 7 in HepB3 cells, lipofectin; type: cell-based; conditions: Table 7, 50.0 nM, approximately 16 hours
Strand notation (5' to 3'): a small letter for the sugar, then the base; units joined by * are phosphorothioate-linked, units joined directly phosphodiester-linked; [ ] holds rarer units or linkages, { } end groups; capitals alone tell only the bases. e = 2'-O-(2-methoxyethyl) (MOE); [5mC] = 5-methylcytosine; d = 2'-deoxy (DNA)

Solved entries:
| substance | percent inhibition of Factor 7 |
| --- | --- |
| 407935 (antisense eA*eT*eG*e[5mC]*eA*dT*dG*dG*dT*dG*dA*dT*dG*d[5mC]*dT*eT*e[5mC]*eT*eG*eA) [compound 407935] | 82% |
| 407900 (antisense e[5mC]*e[5mC]*e[5mC]*e[5mC]*eA*d[5mC]*dA*dA*dT*dT*d[5mC]*dG*dG*d[5mC]*d[5mC]*eT*eT*eG*eG*eG) [compound 407900] | 82% |
| 416446 (antisense eG*eG*eT*e[5mC]*eA*d[5mC]*dT*dG*d[5mC]*dA*dG*dT*dA*d[5mC]*dT*eG*e[5mC]*eT*e[5mC]*eA) [compound 416446] | 69% |
| 416438 (antisense e[5mC]*eA*eG*eG*eA*dG*d[5mC]*d[5mC]*d[5mC]*d[5mC]*d[5mC]*dA*dT*dT*d[5mC]*eT*eG*eG*e[5mC]*eA) [compound 416438] | 75% |
| 416508 (antisense e[5mC]*eG*eA*eG*eT*dT*d[5mC]*dT*dG*d[5mC]*dA*dG*dG*dA*dG*e[5mC]*eG*eG*e[5mC]*e[5mC]) [compound 416508] | 79% |
| 407643 (antisense e[5mC]*eA*e[5mC]*eA*e[5mC]*dA*dT*dG*dG*dA*dG*dT*d[5mC]*dA*dG*e[5mC]*eA*eT*e[5mC]*eG) [compound 407643] | 83% |
| 416507 (antisense eG*eG*eT*eT*eA*d[5mC]*dT*dG*dA*dG*d[5mC]*dG*d[5mC]*dG*dG*eA*eA*eG*eA*eA) [compound 416507] | 77% |
| 416472 (antisense e[5mC]*eA*eG*e[5mC]*e[5mC]*dT*dT*dG*dG*d[5mC]*dT*dT*dT*d[5mC]*dT*e[5mC]*eT*e[5mC]*e[5mC]*eA) [compound 416472] | 80% |
| 416549 (antisense eG*eA*e[5mC]*eA*eA*dT*dG*dG*dT*d[5mC]*dA*dG*dG*dG*d[5mC]*eT*eG*eG*eT*eT) [compound 416549] | 73% |
| 407939 (antisense eT*eG*e[5mC]*eA*eG*d[5mC]*d[5mC]*d[5mC]*dG*dG*d[5mC]*dA*d[5mC]*d[5mC]*d[5mC]*eA*eG*e[5mC]*eG*eA) [compound 407939] | 84% |

Q: Endpoint output: percent inhibition of Factor 7 of 416455 (antisense e[5mC]*eG*e[5mC]*e[5mC]*eG*dG*d[5mC]*dT*d[5mC]*dT*dG*d[5mC]*dT*d[5mC]*dA*eT*e[5mC]*e[5mC]*e[5mC]*e[5mC]) [compound 416455] . Value?
A: 78%

Q: Endpoint output: percent inhibition of Factor 7 of 416477 (antisense e[5mC]*eA*eG*e[5mC]*e[5mC]*dT*dG*dA*dG*dG*d[5mC]*d[5mC]*dA*dG*d[5mC]*eA*eG*eA*eT*e[5mC]) [compound 416477] . Value?
A: 78%

Q: Endpoint output: percent inhibition of Factor 7 of 416449 (antisense eT*eA*eG*eG*eT*dA*dT*dT*dT*dT*dT*d[5mC]*d[5mC]*dA*d[5mC]*eA*eT*eG*eG*eA) [compound 416449] . Value?
A: 65%
